Values were extracted from patent US20080058263A1.

Biological target: T1, VEGFR-1-Fc (UniProt P17948 27-338)
T1 construct: domain: first three Ig domains; expressed in Drosophila S2 cells, purified on Protein A sepharose; also called VEGFR-1-Fc fusion protein; not shown: Fc fragment from the Signal-pIgPlus vector
T1 sequence (P17948 27-338): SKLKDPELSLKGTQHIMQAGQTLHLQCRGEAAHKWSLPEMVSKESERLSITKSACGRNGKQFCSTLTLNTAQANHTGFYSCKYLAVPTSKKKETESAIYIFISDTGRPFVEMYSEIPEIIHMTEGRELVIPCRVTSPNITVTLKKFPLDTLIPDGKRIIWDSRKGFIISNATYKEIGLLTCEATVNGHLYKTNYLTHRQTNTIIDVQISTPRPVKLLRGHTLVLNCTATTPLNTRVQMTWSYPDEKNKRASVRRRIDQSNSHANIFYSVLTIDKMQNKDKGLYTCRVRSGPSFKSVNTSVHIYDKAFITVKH
Assay: receptor-Fc IP
Excerpt: The binding assay procedure was identical to the immunoprecipitation using pentahistidine antibody described in Example 2, apart from the composition of the immunoprecipitation (IP) mixes. […]
outcomeMeasure: binding result

INSERT INTO assay_data (binder, outcomemeasure, result) VALUES
  ('21-14 (ligand) AHYNTEILKSIDNEWRKTQCMPREVCIDVGKEYPDEIEYIFKPSCVPLMRCGGCCNDEGLECMNTSTSYLSKTLFEITVPLSQGPKPVTISFANHTSCRCMSKLD', 'binding result', 'no binding'),
  ('22-7 (ligand) AHYNTEILKSIDNEWRKTQCMPREVCIDVGKEFGVATNTFFKPPCVSVYRCGGCCNSEGLQCVPTEESNITMQIMRIKPHQGQHIGEMSFANHTSCRCMSKLD', 'binding result', 'no binding');
